Reference source for all entries: PubChem BioAssay (NCI)

Tested on: COLO 205 colon
assay_text: NCI-60 one-dose screen, 48 h (100 = growth as untreated, 0 = no growth, -100 = all killed)
cond: 10 µM unless noted
Compounds without any hit were thinned out: in the full panel of roughly 83,000, 20% have a hit.
Label Criterion met when growth is at or above 50%; otherwise label Criterion not met.

Reported growth at or above 50%? CS(=O)(=O)c1ccc(/C(=N/NC(N)=S)c2ccc(F)cc2)cc1
Criterion met

Follow-up entry: Cc1cc2nc(C(Cl)Cl)nc(-c3ccccc3)n2n1
Criterion not met

Try this compound too: Nc1cc(-c2ccc(Cl)cc2)nn1-c1nc(-c2ccc(Br)cc2)cs1
Criterion met

Now consider CC1=C(C(=O)OCc2ccccc2)C(c2ccc3c(c2)OCO3)n2c(nc3ccccc32)N1 (stereo unspecified) and answer again.
Criterion not met

Another compound to look at: C[C@@H]1N=C(c2ccc(Cl)cc2Cl)Nc2nc3ccccn3c2C1=O
Criterion not met

Also COc1ccc(-c2nc(SCCC(C)C)nc(N/N=C(/C)c3ccc(N)cc3)c2C#N)cc1 ?
Criterion met

What do you get for COc1cc(C2=Nc3c(N)nc(N)nc3NC(c3cccc(Nc4ccnc5cc(C(F)(F)F)ccc45)c3)C2)cc(OC)c1OC (stereo unspecified) ?
Criterion met

Check Oc1ccc(C(c2ccc(O)cc2)c2ccc(Cl)cn2)cc1 too.
Criterion not met

Quick one: C#Cc1c(I)n(C2OC(CO[Si](C)(C)C(C)(C)C)C3OC(C)(C)OC32)c(=O)[nH]c1=O (stereo unspecified)
Criterion not met

Ok, now Cc1cc(N2CCOCC2)nc(N(CCCNc2ccnc3cc(Cl)ccc23)Cc2ccc3c(c2)OCO3)n1
Criterion not met

Repeat with CCN1CCN(c2cc(C(=O)Nc3cccc(Nc4ccc5c(OC)cccc5n4)c3)cc(C(F)(F)F)c2)CC1
Criterion not met

What would you report for COc1ccc(S(=O)(=O)NC2c3ccccc3CC2O)cc1OC (stereo unspecified) ?
Criterion met

Could you do the same for CCOC(=O)c1cc(C(=O)c2cc(OC)cc(OC)c2)n2ccccc12 , please?
Criterion not met

Check COc1ccc(/C=C2/CCc3cc4ccc(OC)cc4[o+]c32)c(O)c1 too.
Criterion met

Query Cn1cc(-c2csc(-c3cn(C)c4ccc(F)cc34)n2)c2cnccc21 next
Criterion not met

Quick one: C/C=C(/C)C(=O)O[C@@H]1CC(C)(C)CC2C34OC(=O)[C@@]21CC[C@@]3(C)[C@]1(C)CCC2C(C)(C)C(=O)CC[C@]2(C)C1C[C@@H]4O (stereo partly specified)
Criterion met

Also CCCc1cc(CCC)n2nc(N)nc2n1 , if possible.
Criterion met

And the next one, CN1CCN(Cn2nc(-c3cc(Cl)cc(Cl)c3Cl)oc2=S)CC1 ?
Criterion met

Thanks! And O=C1NCCS(=O)(=O)/C1=C\C=C\c1cccc(C(F)(F)F)c1 ?
Criterion not met

Do the same for N=C(N)c1ccc(-c2ccc(-c3ccccc3)s2)nc1 please
Criterion not met

Queued: CCCN1C2CCC1/C(=C\c1ccc(OC)cc1)C(=O)/C2=C/c1ccc(OC)cc1
Criterion met

Quick one: COC(=O)[C@H](C)NC(=O)[C@@H]1CCCN1C(=O)CNC(=O)[C@H](C)N
Criterion met

Repeat for the following compound: COC(=O)c1nc(-c2ccc(C)cc2)oc1N1CCOCC1
Criterion met

Cool, now O=C(CN1C(=O)NC2NC(=O)NC21)N/N=C/c1cccc([N+](=O)[O-])c1 (stereo unspecified)
Criterion met

Now try COc1ccc(S(=O)(=O)N(C)c2oc(-c3ccc(Cl)cc3)nc2C#N)cc1 .
Criterion met

Could you do the same for CNC(=O)c1cc(Oc2ccc3nc(NC(=O)Nc4ccc(F)cc4F)sc3c2)ccn1 , please?
Criterion met

C#CCOc1ccc(C2=NN(C)C3N=C(Cl)c4ncn(C)c4N23)cc1OCC#C (stereo unspecified) ?
Criterion met

Entry O=C1C2C(c3cccs3)C=C(c3ccc(Cl)cc3)N2C(=S)N1c1ccccc1 (stereo unspecified) please
Criterion met

For c1ccc(-c2cn3nc(-c4c[nH]c5ccccc45)sc3n2)cc1 then?
Criterion met
